Molecular target: cdc7/Dbf4 (Homo sapiens)
Construct: Full-length cdc7 co-expressed with full-length Dbf4; purchased Carna Bioscience, Inc. (Kobe, Japan)
Sequence (O00311 whole entry): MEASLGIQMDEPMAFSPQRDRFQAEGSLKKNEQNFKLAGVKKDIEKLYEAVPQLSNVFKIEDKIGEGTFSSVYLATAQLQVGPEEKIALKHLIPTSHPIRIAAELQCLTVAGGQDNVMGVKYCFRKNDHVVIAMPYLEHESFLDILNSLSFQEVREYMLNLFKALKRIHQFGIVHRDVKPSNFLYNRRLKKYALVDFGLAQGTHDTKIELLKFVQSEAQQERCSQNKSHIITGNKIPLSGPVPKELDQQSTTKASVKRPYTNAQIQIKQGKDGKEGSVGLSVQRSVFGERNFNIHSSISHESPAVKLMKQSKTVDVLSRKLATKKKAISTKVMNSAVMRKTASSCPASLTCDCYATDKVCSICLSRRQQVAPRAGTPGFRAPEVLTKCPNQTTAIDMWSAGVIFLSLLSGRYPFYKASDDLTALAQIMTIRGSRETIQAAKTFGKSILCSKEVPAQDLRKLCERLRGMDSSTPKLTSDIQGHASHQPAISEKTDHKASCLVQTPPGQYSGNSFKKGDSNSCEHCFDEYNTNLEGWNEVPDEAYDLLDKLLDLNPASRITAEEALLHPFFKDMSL
Sequence (Q9UBU7 whole entry partner): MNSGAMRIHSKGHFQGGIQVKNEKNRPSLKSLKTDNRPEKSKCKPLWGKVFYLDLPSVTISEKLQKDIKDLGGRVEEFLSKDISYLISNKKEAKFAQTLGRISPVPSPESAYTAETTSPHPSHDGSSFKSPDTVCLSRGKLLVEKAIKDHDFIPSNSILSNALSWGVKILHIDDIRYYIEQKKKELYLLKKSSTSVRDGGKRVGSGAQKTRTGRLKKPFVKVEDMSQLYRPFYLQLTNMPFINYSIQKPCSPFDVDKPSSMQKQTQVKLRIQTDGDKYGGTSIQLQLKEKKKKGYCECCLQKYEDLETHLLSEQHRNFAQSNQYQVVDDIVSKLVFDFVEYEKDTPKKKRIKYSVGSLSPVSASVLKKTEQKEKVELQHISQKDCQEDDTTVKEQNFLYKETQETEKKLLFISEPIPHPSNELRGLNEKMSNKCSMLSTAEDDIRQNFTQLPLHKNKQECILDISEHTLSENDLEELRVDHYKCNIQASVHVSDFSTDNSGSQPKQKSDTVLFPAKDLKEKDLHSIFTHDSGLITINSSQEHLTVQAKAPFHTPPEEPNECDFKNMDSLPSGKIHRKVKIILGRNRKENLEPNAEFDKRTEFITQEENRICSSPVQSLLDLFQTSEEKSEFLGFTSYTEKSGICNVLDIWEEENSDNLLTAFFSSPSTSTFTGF
Test: Determination of cdc7 kinase inhibitory activity (HTRF Transcreener ADP assay)
Format: biochemical
Settings: test compound 1 μM; 1.0 μM ATP, 10 μg/ml MCM2, 0.1 μg/ml cdc7/Dbf4, 90 min at room temperature; read-out: Inhibitory rate (%) at 1 μM
Text: Full-length cdc7 co-expressed with full-length Dbf4 was purchased from Carna Bioscience, Inc. (Kobe, Japan). Homogeneous time-resolved fluorescence (HTRF) Transcreener ADP assay (Cisbio Inc., MA., U.S.A.) was used for detecting cdc7/Dbf4 kinase activity. […] Free ADP from the ATP hydrolysis reaction was detected by the monoclonal ADP antibody labeled with Eu^3+-Cryptate, which competes with both native ADP and d2-coupled ADP. The TR-FRET signal was detected by EnVision (PerkinElmer Inc., MA, U.S.A.). […]
Measured inhibition at 1 µM accompanies every entry in the list below.

Compound: O=C1NC2(CCCCC2)Nc2cc(-c3ccncc3)sc21
Measured On: cdc7/Dbf4 (Homo sapiens)
Units Of Measure: %
inhibition at 1 µM: 98.5
--
Compound: Cc1[nH]ncc1-c1cc2c(s1)C(=O)NC(C)(CC(F)(F)F)N2C (centres unmarked)
Measured On: cdc7/Dbf4 (Homo sapiens)
Units Of Measure: %
inhibition at 1 µM: 101
--
Compound: O=C1NC2(CCN(C(=O)OCc3ccccc3)CC2)Nc2cc(-c3ccncc3)sc21
Measured On: cdc7/Dbf4 (Homo sapiens)
Units Of Measure: %
inhibition at 1 µM: 103
--
Compound: CCN1c2cc(-c3ccncc3)sc2C(=O)NC1(C)C
Measured On: cdc7/Dbf4 (Homo sapiens)
Units Of Measure: %
inhibition at 1 µM: 97.6
--
Compound: Cc1[nH]ncc1-c1cc2c(s1)C(=O)NC1(CCCCC1F)N2 (centres unmarked)
Measured On: cdc7/Dbf4 (Homo sapiens)
Units Of Measure: %
inhibition at 1 µM: 91.8
--
Compound: CC1(C)NC(=O)c2sc(-c3cn[nH]c3)cc2N1
Measured On: cdc7/Dbf4 (Homo sapiens)
Units Of Measure: %
inhibition at 1 µM: 104
--
Compound: CC1(CC(F)(F)F)NC(=O)c2sc(-c3ccncc3)cc2N1 (centres unmarked)
Measured On: cdc7/Dbf4 (Homo sapiens)
Units Of Measure: %
inhibition at 1 µM: 97.1
--
Compound: CCN1c2cc(-c3ccncc3)sc2C(=O)NC12CCCC2
Measured On: cdc7/Dbf4 (Homo sapiens)
Units Of Measure: %
inhibition at 1 µM: 101

Origin of measurements: patent US8691828B2
